// provenance: ChEMBL document CHEMBL1156021

Recorded half-life at 1 µM values for a group of compounds are listed next.
Assay: Metabolic stability in human liver microsomes assessed as half life at 1 uM
Format: ADME, Microsome

CCN(Nc1c(Nc2cccc(C(=O)N(C)C)c2O)c(=O)c1=O)c1ccccc1 | > 120 min
CCN(Nc1c(Nc2cccc(C(=O)N(C)C)c2O)c(=O)c1=O)c1ccccn1 | > 120 min

For CCN(CC)Nc1c(Nc2cccc(C(=O)N(C)C)c2O)c(=O)c1=O the compound record lists half-life at 1 µM as > 120 min

----------
In this section, each of the compounds is paired with its reported Ki.
Molecular target: C-X-C chemokine receptor type 1 (Homo sapiens, UniProt P25024)
Sequence (P25024 whole entry): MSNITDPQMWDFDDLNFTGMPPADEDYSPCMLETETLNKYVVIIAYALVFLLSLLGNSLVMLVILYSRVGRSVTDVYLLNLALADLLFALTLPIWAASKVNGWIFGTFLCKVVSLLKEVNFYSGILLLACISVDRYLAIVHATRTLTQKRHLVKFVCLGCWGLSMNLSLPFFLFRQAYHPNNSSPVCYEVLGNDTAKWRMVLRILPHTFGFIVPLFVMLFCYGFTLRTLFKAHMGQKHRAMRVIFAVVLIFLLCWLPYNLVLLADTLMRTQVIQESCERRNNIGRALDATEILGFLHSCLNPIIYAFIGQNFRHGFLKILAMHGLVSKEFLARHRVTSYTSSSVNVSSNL
Experiment: Displacement of [125I]IL-8 from human CXCR1 expressed in mouse BaF3 cells by liquid scintillation counting
Type: cell-based
I only need the number, in µM, no unit after it.

CCN(Nc1c(Nc2cccc(C(=O)N(C)C)c2O)c(=O)c1=O)c1ccccc1 | 4.1
CCN(Nc1c(Nc2cccc(C(=O)N(C)C)c2O)c(=O)c1=O)c1ccccn1 | 5.2

From here, focus on the item given below.
Let me check: CCN(CC)Nc1c(Nc2cccc(C(=O)N(C)C)c2O)c(=O)c1=O , system C-X-C chemokine receptor type 1 (Homo sapiens, UniProt P25024), measured Ki is 9.7
